These data points were gathered from the COVID Moonshot data (paper PMC11187573).

Target: SARS-CoV-2 Main Protease (SARS-CoV-2)
Conditions: 50.0 µM
The entries below come with measured inhibition values attached.
Parameter: inhibition (%)

1) CC(C(=O)Nc1cccc(OC2CC(=O)N2)c1)c1cnccn1 (centres undefined): 17
2) Cc1cccc(C)c1NC(=O)CN1C(=O)C(=O)c2ccccc21: -2.09
3) O=C(CCl)N1CCN(Cc2cc(O)cc(Cl)c2)CC1: 89.5
4) N#Cc1ccc(NC(=O)Nc2cccnc2)cc1: 11.6

====

Target: SARS-CoV-2 Main Protease (SARS-CoV-2)
Conditions: 50.0 µM
The entries below come with measured inhibition values attached.
Parameter: inhibition

1. O=C(Cn1c(=O)[nH]c2ccccc21)Nc1cccc(Cl)c1: 0%
2. COc1ccccc1OCC(C)NC(=O)c1cc(=O)[nH]c2cc(F)ccc12 (centres undefined): 22%
3. Cc1ccncc1NC(=O)Cc1cc(Cl)cc(OCc2cc(-c3ccc(Cl)cc3)no2)c1: 41.8%
4. Cc1ccncc1NC(=O)Cc1cc(Cl)cc(OCc2n[nH]c3ccccc23)c1: 9.6%

====

Settings: 20.0 µM
The entries below come with measured relative solubility at 20 uM values attached.
Parameter: relative solubility at 20 uM

1) O=C(Cc1ccc(Cl)s1)Nc1cccnc1: 1
2) C=CC(=O)N(c1ccc(C(F)(F)F)cc1)C(C(=O)NCCc1cccc(F)c1)c1cncc(C#N)c1 (stereo not drawn): 1
3) O=C(CCl)N1CCN(Cc2cccc(Cl)c2)C[C@@H]1Cc1ccccc1 (stereo in doubt): 0.97
4) CCOC(=O)[C@H]1O[C@@H]1C(=O)N[C@@H](CC(C)C)C(=O)NCCC(C)C (stereo in doubt): 1
5) Cc1ccc(NC2CCN(c3ccc(S(N)(=O)=O)cc3)CC2)cc1: 0.92
6) COCCc1ccc(Cl)cc1CN1CCN(C(=O)CCl)CC1: 1
7) C=CC(=O)N(c1cc(C(C)(C)C)on1)C(C(=O)NCCc1cccc(F)c1)c1cccnc1 (stereo not drawn): 0.98
8) CCOC(=O)c1nc(S(C)(=O)=O)ncc1Cl: 0.99

====

Conditions: 20.0 µM
The entries below come with measured relative solubility at 20 uM values attached.
Parameter: relative solubility at 20 uM

1. C=CC(=O)N(c1ccc(CC)c(I)c1)C(C(=O)NC(C)(C)C)c1cccnc1 (stereo not given): 0.95
2. C#CCN1CCN(C(=O)CCl)CC1: 1
3. C=CC(=O)N1CCN(Cc2c[nH]c3ccc(C#N)cc23)CC1: 0.97
4. CCCSCC(=O)C(C#N)C(=O)Nc1ccccc1F (stereo not given): 1
5. COc1cccc2c1OCC(NC(=O)c1cc(=O)[nH]c3ccc(F)cc13)C2 (stereo not given): 0.96
6. C=CC(=O)N1CCN(C(=O)c2cccc(Cl)c2)CC1: 0.99
7. C=CC(=O)N(c1ccc(N(C)C)c(C)c1)C(C(=O)Nc1c(C)cccc1CC)c1cccnc1 (stereo not given): 0.9
8. C=CC(=O)N(c1ccc(C(C)(C)C)cc1)C(C(=O)NCCC(=O)OCC)c1cccnc1 (stereo not given): 0.99
9. Cn1cnnc1NC(=O)Cc1cccc(Cl)c1: 1.01
10. CC(C)(C)CC(=O)C(C#N)C(=O)Nc1ccccc1 (stereo not given): 1

====

Molecular target: SARS-CoV-2 Main Protease (SARS-CoV-2) (UniProt P0DTD1)
Details: 50.0 µM
Parameter: inhibition (%)

1. C=CC(=O)N1CCN(Cc2ccc(F)cc2)CC1: 11.4
2. C=CC(=O)N(C1CCC2(CCCC2)C1)C(C(=O)NC(C)(C)C)c1cccnc1 (stereo unspecified): 6.35
3. Cc1ccncc1NC(=O)Cc1cccc(S(N)(=O)=O)c1: 6.23
4. C=CC(=O)N(c1ccc(C(C)(C)C)cc1)C(C(=O)NC(C)(C)C)c1cncc(Br)c1 (stereo unspecified): -13.8
5. O=C(N[C@@H](Cc1cc(=O)[nH]c2ccccc12)C(=O)O)c1ccc(Cl)cc1 (stereo in doubt): -22.3
6. CCCCN(CCCNC(=O)Nc1cn(CC(C)C)c(=O)c2ccccc12)c1ccccc1: -3.25
7. CCCC(C(=O)Nc1cnccc1C)c1cccc(Cl)c1 (stereo unspecified): 90.6
8. CC(=O)N1CCN(Cc2cccc(C#N)c2)CC1: 6.59
9. COc1cc2c(cc1OC)C(C)N(C(=O)Nc1cn(C)c(=O)c3ccccc13)CC2 (stereo unspecified): 5.23
10. O=C(NCc1ccns1)Nc1cccc(CN2CCCC2=O)c1: -2.05
11. C=CC(=O)N(c1cc(C(C)(C)C)on1)C(C(=O)NCCc1cccc(F)c1)c1cncc(C)c1 (stereo unspecified): 24.8
12. C=CC(=O)N(c1ccc(C(C)(C)C)cc1)C(C(=O)NC(C)(C)C)c1cccnc1 (stereo unspecified): 27.2
13. Cn1ccc(CN(C(=O)Cc2cccnc2)c2ccc(-c3ccccn3)cc2)n1: 16.1
14. O=C1Nc2c(Br)cccc2C1=O: -4.45
15. C=CC(=O)N(c1ccc(C2(C)CC2)cc1)C(C(=O)Nc1c(C)cccc1CC)c1cccnc1 (stereo unspecified): 20.9
16. CN(C)C/C=C/C(=O)Nc1c[nH]c2ccccc12: 22.5
17. Cc1cccnc1NC(=O)Nc1cn(CC(C)C)c(=O)c2ccccc12: -1.16
18. Cc1ccncc1-c1nnc(-c2cccc(Cl)c2)o1: 13.8
19. Cc1coc(NC(=O)Nc2cccnc2)n1: 8.86
20. COc1ccccc1OCCNC(=O)c1cc(=O)[nH]c2cccc(F)c12: 12.5
21. C=CC(=O)N(c1ccc(SC)cc1)C(C(=O)Nc1ccc(OC)cc1C)c1cccnc1 (stereo unspecified): 22.2
22. COc1cc(CN2CCN(C(=O)CCl)CC2)c2ccccc2c1: 90.9
23. Cc1cc(Cn2nnc3c(-c4ccco4)nc(N)nc32)ccc1N: -1.33
24. Cc1noc(C)c1COc1ccccc1C(=O)NC(C)c1nnc2ncccn12 (stereo unspecified): 8.28
25. O=C(Nc1nncn1C1CC1)C1CCS(=O)(=O)c2ccccc21 (stereo unspecified): 74.6
26. O=C(NCC1COc2ccccc2O1)c1cc(=O)[nH]c2cc(F)ccc12 (stereo unspecified): -2.5
27. CCCSCC(=O)C(C#N)C(=O)Nc1ccc(F)cc1F (stereo unspecified): 21.8
28. O=C(Nc1ccccc1)c1cc(Cl)ccc1O: 8.41
29. Cn1cnc(CN(C(=O)c2cnnn2-c2ccccc2)c2ccc(OCc3ccccc3)cc2)c1: 1.89
30. O=C(Nc1ccc([N+](=O)[O-])cc1Cl)c1cccc(Cl)c1: -11.4
31. O=C(CCl)N1CCC(c2nc(-c3cccnc3)nc3ccccc23)CC1: 71.5

====

The entries below come with measured inhibition values attached.
Biological target: SARS-CoV-2 Main Protease (SARS-CoV-2) (UniProt P0DTD1)
Settings: 50.0 µM
Parameter: inhibition (%)

1. C=CC(=O)N(c1ccc(N(C)C)c(C)c1)C(C(=O)Nc1ccc(OC)cc1)c1cccnc1 (stereo unspecified): 2.05
2. Cc1nnc(NC(=O)Cc2cccc(Cl)c2)n1C: -14
3. C=CC(=O)N(c1ccc(C(C)(C)C)cc1)C(C(=O)NC(C)C)c1cccnc1 (stereo unspecified): 0
4. N#CC(C(=O)Nc1cccc(Cl)c1)C(=O)c1cccs1 (stereo unspecified): 0
5. O=C(Cc1cccc(Cl)c1)Nc1cnns1: 48.7
6. Cc1ccnc(C)c1NC(=O)NCc1cccc(N2CCOCC2)c1: 0

====

Conditions: 20.0 µM
Parameter: relative solubility at 20 uM

1) CCC(NC(=O)C(C)n1cncn1)c1ccccc1OCC(=O)N1CCCC1 (stereo not drawn): 1
2) C=CC(=O)N(c1ccc(C(C)(C)C)cc1)C(C(=O)NCCc1cccc(F)c1)c1cncc(C#N)c1 (stereo not drawn): 0.57
3) Cc1cc2c(cc1C)[C@H](C(=O)Nc1cncnc1-n1cccn1)CO2 (stereo in doubt): 0.82

====

pIC50: −log10 of the molar value.
# pIC50 per entry for UniProt P0DTD1
Parameter: pIC50

1) Cc1ccnc2[nH]c(CC3CCN(C(=O)CCl)CC3)nc12: 4.53
2) O=C(Nc1cccc(C(F)(F)F)c1)Nc1ccccc1Sc1ncc([N+](=O)[O-])s1: 6.66
3) CCC(=O)Nc1ccc(N(Cc2cscn2)C(=O)Cn2nnc3ccccc32)cc1: 4.34
4) COc1ccc(Cl)cc1OCCNC(=O)c1cc(=O)[nH]c2cccc(OC)c12: 6.72
5) Cc1cc(C(F)(F)F)nc2c1c(N)nn2C(=O)C1CCOc2ccc(Cl)cc21 (stereo not given): 4.24
6) CC(C)C[C@@H]1CN(C(=O)CCl)CCN1Cc1cccc(Cl)c1 (stereo in doubt): 6.29
7) N#Cc1ccc(CN2CCC(C3CCNC3)CC2)cc1 (stereo not given): 5.87
8) CC(CCc1ccccc1)N1CCN(C(=O)CCl)CC1 (stereo not given): 4.87
9) CN(C)c1ccc(N(Cc2ccccc2)C(=O)Cn2nnc3ccccc32)cc1: 5.81
10) O=C(Cn1nnc2ccccc21)N(Cc1cccc(Cl)c1)c1ccc(N2CCCCC2)cc1: 5.22
